System: Saccharomyces cerevisiae
Test: protein stability index of tFT-peptide fusion (C-terminal peptide) (PSI (0-1 scale)); higher = more stable (slower turnover);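 further: PSI is a weighted mean of sequencing reads over stability bins, variants kept only with over 10 reads, mCherry proximal and sfGFP distal, peptide attached via GGGS linker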
Conditions: genetic background: wild type; temperature: 30 C
Property Measured: protein stability index
// print number alone

Query: Write down protein stability index measured for item RTRPCNGPGRFG
Reply: 0.724

Query: Write down protein stability index measured for item KKKKEEKNRQES
Reply: 0.7

Query: Write down protein stability index measured for item FALLVSDISGRI
Reply: 0.811

Query: Write down protein stability index measured for item GLVCSHLRTAGS
Reply: 0.686

Query: Write down protein stability index measured for item MQFVALFLVGLL
Reply: 0.465

Query: Write down protein stability index measured for item QADAPPGDTNTL
Reply: 0.727

Query: Write down protein stability index measured for item LPPARRHPSVYR
Reply: 0.669

Query: Write down protein stability index measured for item SPPPPPPARCPS
Reply: 0.592

Query: Write down protein stability index measured for item PPRPSPPLSPLP
Reply: 0.72

Query: Write down protein stability index measured for item VFVRSTSFLFFG
Reply: 0.678

Query: Write down protein stability index measured for item LSQPGWFKCCLS
Reply: 0.42

Query: Write down protein stability index measured for item IKNEKKKKKNKK
Reply: 0.7

Query: Write down protein stability index measured for item LFGPRCTSSSAV
Reply: 0.689

Query: Write down protein stability index measured for item SLSLVSLSPSFS
Reply: 0.694

Query: Write down protein stability index measured for item WLVADWLLALFW
Reply: 0.627

Query: Write down protein stability index measured for item DKACVHPRTVTG
Reply: 0.703

Query: Write down protein stability index measured for item KKKKKKKKDNKL
Reply: 0.781

Query: Write down protein stability index measured for item PPPHPPPPASPP
Reply: 0.653

Query: Write down protein stability index measured for item FCTSSRLLYCSA
Reply: 0.302

====

Exercise: for every item that follows, state its recorded protein stability index.
Test system: Saccharomyces cerevisiae
Assay: protein stability index of tFT-peptide fusion (C-terminal peptide) (PSI (0-1 scale)); higher = more stable (slower turnover)
Conditions: genetic background: wild type; temperature: 37 C
// print number alone

Query: Send back Saccharomyces cerevisiae protein stability index of LLASFWKFIVNI only.
Reply: 0.166

Query: Send back Saccharomyces cerevisiae protein stability index of FPPCSFLGFLVF only.
Reply: 0.688

Query: Send back Saccharomyces cerevisiae protein stability index of FPLFCRIHLLCS only.
Reply: 0.0529

Query: Send back Saccharomyces cerevisiae protein stability index of IILRPQYVHYFL only.
Reply: 0.546

Query: Send back Saccharomyces cerevisiae protein stability index of CFFLLLRVSLFP only.
Reply: 0.218

Query: Send back Saccharomyces cerevisiae protein stability index of GPILVWVMADWG only.
Reply: 0.518

Query: Send back Saccharomyces cerevisiae protein stability index of ILFVCVCVLHVG only.
Reply: 0.252

Query: Send back Saccharomyces cerevisiae protein stability index of FTGLCQGLWLGW only.
Reply: 0.75

Query: Send back Saccharomyces cerevisiae protein stability index of FHFLFLFSLVSV only.
Reply: 0.375

Query: Send back Saccharomyces cerevisiae protein stability index of LFIVTFIPVLFS only.
Reply: 0.59

Query: Send back Saccharomyces cerevisiae protein stability index of TLFSFLLVFVFG only.
Reply: 0.35

Query: Send back Saccharomyces cerevisiae protein stability index of LLGGRVLWAWRV only.
Reply: 0.391

Query: Send back Saccharomyces cerevisiae protein stability index of SCFRSLAVYFLC only.
Reply: 0.0763

Query: Send back Saccharomyces cerevisiae protein stability index of PVGLMKRFRLFI only.
Reply: 0.626

Query: Send back Saccharomyces cerevisiae protein stability index of IFLLFPFSWRIF only.
Reply: 0.539

Query: Send back Saccharomyces cerevisiae protein stability index of GLGMVIIGLLIG only.
Reply: 0.387

Query: Send back Saccharomyces cerevisiae protein stability index of VCWCVVVLEFGL only.
Reply: 0.267

Query: Send back Saccharomyces cerevisiae protein stability index of NVALHPGVPRKC only.
Reply: 0.702

Query: Send back Saccharomyces cerevisiae protein stability index of FVYFLLVVCFAF only.
Reply: 0.249

Query: Send back Saccharomyces cerevisiae protein stability index of CICAFCSLNLLC only.
Reply: 0.607

Query: Send back Saccharomyces cerevisiae protein stability index of FFTLSTVKLLRV only.
Reply: 0.538

Query: Send back Saccharomyces cerevisiae protein stability index of VGVIGWGGLGVG only.
Reply: 0.542

Query: Send back Saccharomyces cerevisiae protein stability index of RKRTILVIIVVK only.
Reply: 0.395

Query: Send back Saccharomyces cerevisiae protein stability index of GGGWCVWMVWFG only.
Reply: 0.481

Query: Send back Saccharomyces cerevisiae protein stability index of FCLGFRFFVFFL only.
Reply: 0.288

Query: Send back Saccharomyces cerevisiae protein stability index of YLGSLQVPVHLF only.
Reply: 0.455

Query: Send back Saccharomyces cerevisiae protein stability index of VFSGGGFFLKVV only.
Reply: 0.504

Query: Send back Saccharomyces cerevisiae protein stability index of HLGNTMIKKLIG only.
Reply: 0.62

Query: Send back Saccharomyces cerevisiae protein stability index of LLTLILRIFVLN only.
Reply: 0.217

Query: Send back Saccharomyces cerevisiae protein stability index of ALNFFSLFMLFR only.
Reply: 0.358

Query: Send back Saccharomyces cerevisiae protein stability index of ETYCLPRVASGI only.
Reply: 0.708

Query: Send back Saccharomyces cerevisiae protein stability index of HGVYSVLRFFFC only.
Reply: 0.579

Query: Send back Saccharomyces cerevisiae protein stability index of VRFPVFFIILFL only.
Reply: 0.202

Query: Send back Saccharomyces cerevisiae protein stability index of WGGIASLVASAA only.
Reply: 0.378

Query: Send back Saccharomyces cerevisiae protein stability index of CLSGPFRSLAVF only.
Reply: 0.526

Query: Send back Saccharomyces cerevisiae protein stability index of ALCPPLPMLVVA only.
Reply: 0.0758

Query: Send back Saccharomyces cerevisiae protein stability index of VFVLFCAFVRAL only.
Reply: 0.0967

Query: Send back Saccharomyces cerevisiae protein stability index of SWFNLLSILPRD only.
Reply: 0.736

Query: Send back Saccharomyces cerevisiae protein stability index of VVCFVVCGFYLG only.
Reply: 0.428

Query: Send back Saccharomyces cerevisiae protein stability index of VVWIQRTVLSLI only.
Reply: 0.327

Query: Send back Saccharomyces cerevisiae protein stability index of VFRRWGLIGVIV only.
Reply: 0.353
